Tested on: MOLT-4
Assay: NCI tumour cell line growth inhibition, 48 h
The source made the active and inactive calls. Cut-off read from the data, not from the text of the source: active = GI50 up to about 1.1 µM and inactive = higher.
measured attribute: GI50

Use these answered entries as a reference point.
{"columns": ["molecule", "measured attribute", "observed measurement"],
 "data": [
  ["CC(C)C(Sc1nc(-c2ccccc2)c(-c2ccccc2)[nH]1)C(=O)N/N=C/c1ccc(Cl)cc1 (stereo not drawn)", "GI50", "0.0382 µM (active)"],
  ["O=C(c1cc(Cl)cc(Cl)c1)N(Cc1cccnc1)C(=S)N(Cc1cccnc1)C(=O)c1cc(Cl)cc(Cl)c1", "GI50", "38.9 µM (inactive)"]
]}

Next, consider the following molecule.
Sure, the documented GI50 for O=C1CC2C(=O)c3ccccc3CC2c2ccccc21 (stereo not drawn) is 22.4 µM (inactive)
